Could you please report measured growth for the items listed next?
tested on: SK-MEL-28 melanoma; assay: NCI-60 one-dose screen, 48 h (100 = growth as untreated, 0 = no growth, -100 = all killed); settings: 10 µM
This is part of a sample that, as a whole, favours compounds with a hit. Of some 83,000 tested, about 20% had one in any assay.
I only need the number, in %, no unit after it.

Input: # query: growth of entry CCOC(=O)C1OC1c1ccccc1 (centres undefined)
Output: 110

Input: Then this molecule: CCOC(=O)Nc1nn[nH]n1
Output: 115

Input: Then this molecule: CC(C)=NNc1ccc([N+](=O)[O-])cc1[N+](=O)[O-]
Output: 111

Input: Then this molecule: CC(C)OC(C(=O)O)c1ccccc1 (centres undefined)
Output: 102

Input: Then this molecule: NCCCN
Output: 104

Input: Then this molecule: CCCCCCCCCCC1CO1 (centres undefined)
Output: 98.4

Input: Then this molecule: NC(=S)CN1CCOCC1
Output: 106

Input: Then this molecule: O=[N+]([O-])c1ccc(/C=C/C=C/c2ccccc2)c(Cl)c1
Output: 106

Input: Then this molecule: CC(CN1CCCCC1)NC(=O)c1scnc1-c1ccccc1 (centres undefined)
Output: 107

Input: Then this molecule: CCN=c1cc2sc3cc(NCC)c(C)cc3nc-2cc1C
Output: 60.4

Input: Then this molecule: CC(=O)OCCC(C)CCC=C(C)C (centres undefined)
Output: 113

Input: Then this molecule: NC(=S)N/N=C/c1ccc(N)cc1
Output: 112

Input: Then this molecule: COc1cc2c(cc1OC)[C@H](C(=O)O)[C@@H](c1ccc(OC(C)C)c(OC)c1)N(C)C2=O
Output: 116

Input: Then this molecule: CC(C)(N)COS(=O)(=O)O
Output: 96.3

Input: Then this molecule: O=C1NC(=O)C2C(=O)NC(=O)C1C21CCc2ccccc21 (centres undefined)
Output: 113

Input: Then this molecule: O=[N+]([O-])c1ccc(-c2noc(-c3cccs3)n2)cc1
Output: 99.5

Input: Then this molecule: OCCN(CCO)C(=S)S
Output: 113

Input: Then this molecule: Cc1cc2nc(CO)[nH]c2cc1C
Output: 108

Input: Then this molecule: Oc1ccccc1O
Output: 101

Input: Then this molecule: c1ccc(Cc2ccccc2)cc1
Output: 112

Input: Then this molecule: CCCCNC(=O)C(=O)NCCCC
Output: 112

Input: Then this molecule: CC1(C)Nc2cccc3c(N=Nc4ccc(N=Nc5ccccc5)c5ccccc45)ccc(c23)N1
Output: 116

Input: Then this molecule: Cc1ccccc1C1N=C2Oc3ccccc3C=C2C(=O)N1 (centres undefined)
Output: 41.5

Input: Then this molecule: NC(=S)NN=C1CCCC1
Output: 101

Input: Then this molecule: CC(C)C(C#N)(C(C)C)C(C)C
Output: 109

Input: Then this molecule: CCC(O)CC(CC)CO (centres undefined)
Output: 101

Input: Then this molecule: O=C(Cc1nc2ccc([N+](=O)[O-])cc2nc1CC(=O)c1ccccc1)c1ccccc1
Output: 64.7

Input: Then this molecule: CCOC(=O)c1cc(/C=C/c2ccc(Cl)cc2Cl)on1
Output: 86.1

Input: Then this molecule: NCC(=O)CCC(=O)O
Output: 103

Where do these numbers come from? They come from PubChem BioAssay (NCI).
